- Test Method Notes: ATP-based viability of Huh7 replicon cells – cell-based, CellTiter-Glo luminescence, basal, 48 h, cytotoxicity control for HCV replication inhibitor project, primary screen (AID 1143);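 note: Huh7 hepatoma cells carrying a hepatitis C replication reporter with no stimulus; test concentration not given here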
- Assay Context: higher = more signal, called active from +8 up or from −8 down
// N strictly below -3 in z-score; Y otherwise

{"columns": ["Smiles Input", "Cat"],
 "data": [
  ["O=C(CS)NCCCCCNC(=O)[C@H]1C[C@H]2C(=O)NCC(=O)N2[C@H]1c1ccc(O)cc1", "Y"]
]}

// query Does the molecule C=C(CCCC)C(=O)CC[C@@H](OC(C)=O)c1ccc(CO)o1 have recorded z-score that is -3 or more?
// result Y

// query Could you tell me if the measured z-score of CC(=CC1CCCCC1)[C@@H](NC(=O)c1cccnc1)c1ccc(-c2ccccc2)cc1 reaches -3 or more?
// result Y

// query Reported z-score reaches at least -3 for NC(=O)[C@@H]1[C@H]2C(=O)O[C@H](c3ccccc3)[C@H](c3ccccc3)N2[C@H](c2ccc(O)cc2)[C@@]12C(=O)Nc1ccc(C#CC3=CCCCC3)cc12 ?
// result N

// query Determine whether this molecule has z-score no lower than -3: C#CCN(C/C=C/c1ccccc1)[C@H](CO)c1ccccc1
// result N

----------
- Test Method Notes: growth of efflux-deficient E. coli DRC39 – strain DRC39, OD650, 48 h, E. coli filamentation inducers, primary screen (AID 1179);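 note: screen aims at cell division blockers that make cells filament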
- Assay Context: E. coli DRC39 delta-acrAB growth, higher = more signal, called active from +8 up or from −8 down
Lab note: anything with z-score at or over 0.5 counts as 1; the rest go in 0.

// query Assess whether reported z-score for COCCCNC(=O)[C@@]1(Cc2ccccc2CN=[N+]=[N-])N=C(c2ccc(OCCCO)cc2)O[C@H]1c1ccccc1CN=[N+]=[N-] sits at 0.5 or higher.
// result 1

// query Is the recorded value of z-score equal to or greater than 0.5 for this compound? C=CC[C@@]1(C(=O)N2CCCCC2)N=C(c2ccc(OCCCO)cc2)O[C@@H]1c1ccccc1CN=[N+]=[N-]
// result 0

// query API: above_or_equal(metric=z-score, cutoff=0.5) for item COc1cc2c(cc1OC)CN(C(=O)[C@H]1[C@@H]3C(=O)O[C@@H](c4ccccc4)[C@@H](c4ccccc4)N3[C@@H](c3ccccc3OCCO)[C@]13C(=O)Nc1ccc(C#CCCO)cc13)CC2
// result 0

// query Reported z-score reaches at least 0.5 for O=C1[C@@]23C=C(Br)[C@H](C[C@@H]2COC3)[C@]12CO2 ?
// result 0

// query Confirm if z-score reported for the compound O=C1N(CCS(=O)(=O)c2ccccc2)c2ccccc2[C@@H]2OC(c3ccc(OCCCO)cc3)=N[C@]12Cc1ccccc1 is 0.5 or above.
// result 1

// query Answer whether z-score of COCC(=C=CC[C@H](O)c1cccc(OCCO)c1)C[C@H](O)c1cc(Cl)cc(Cl)c1O is greater than or equal to 0.5.
// result 0

// query Hello, I need to know if CC(=O)NCCCC[C@@H]1NC(=O)[C@H]2C[C@@H](C(=O)O)[C@@H](c3ccc(O)cc3)N2C1=O has measured z-score not below 0.5. Thanks!
// result 0

----------
So I've got a bunch of compounds here, and I need their composite z-score values.
- Test Method Notes: probe aShh binding to arrayed compounds – biochemical, biotinylated probe, 635/667 nm fluorescence, primary screen (AID 1114);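 note: probe is biotin-labelled aShh protein from a stem cell growth factor screen; measures binding of labelled protein to compounds printed on the slide; score merges feature fluorescence at 667 nm with signal-to-noise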
- Assay Context: small-molecule microarray, higher = more signal
Give bare numbers.

Quick one: give me composite z-score for each item below, same order please.
1. C=CCC(OC(C)=O)[C@@H]1[C@@H](N(Cc2ccc(-c3ccccc3)cc2)C(=O)Cc2ccc(F)cc2)c2cc(OCCCO)ccc2N1C(=O)c1ccc2ccccc2c1 (stereo partly specified)
2. CC(C)=CCCC(C)=CC(O)C1C=CC2C(=O)N(c3ccccc3)C(=O)C2N1Nc1ccc(C(C)C)cc1 (stereo unspecified)
3. CCN(CC)c1ccc(N2CC=CC34O[C@@H]5/C=C\CCC(C)OC(=O)C5[C@H]3C(=O)N(CCCCCO)[C@@H]4C2=O)cc1 (stereo partly specified)
4. CCCC[C@@H]1C[C@H]1[C@@H](NC(=O)c1cccnc1)c1ccc(Cl)cc1
5. COCCCNC(=O)[C@@]1(CCS(=O)(=O)c2ccccc2)N=C(c2ccc(OCCCO)cc2)O[C@H]1c1ccccc1N=[N+]=[N-]
6. C=CCOC(=O)[C@H]1[C@@H]2C(=O)O[C@@H](c3ccccc3)[C@@H](c3ccccc3)N2[C@@H](c2ccc(OCCOC(=O)[C@@H]3C[C@@H]4C(=O)N5CCC[C@H]5C(=O)N4[C@@H]3c3cccc(OCCO)c3)cc2)[C@]12C(=O)Nc1ccc(I)cc12

// result
[-0.221, 0.0839, -0.253, -0.509, 0.204, 0.0098]
